- TEST NAME: E. coli growth modulation, two-sided OD650, primary screen, E. coli filamentation project, strain DRC41, 24 h (AID 1093);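 note: MC1000 strain lacking acrAB efflux and sulA so SOS filamentation is blocked; test concentration not given here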
- ASSAY CONTEXT: OD650, 24 h, higher = more signal, called active from +8 up or from −8 down
Each item that follows carries a reported z-score.
Keep it simple and answer with nothing but the number.

Query :: For the compound `C=CC[C@]1(C(=O)N(C)C)COC(c2ccc(OCCCO)cc2)=N1` , give its measured z-score value.
Result :: -1.46

Query :: For the compound `CN1C(=O)[C@]2(CCC(=O)OC(C)(C)C)N=C(c3ccc(OCCCO)cc3)O[C@@H]2c2ccccc21` , give its measured z-score value.
Result :: 0.95

Query :: For the compound CC(C)C[C@H]1NC(=O)[C@H](Cc2ccccc2)NC(=O)[C@@]23C(=O)N[C@@H](Cc4ccccc4)C2[C@H](C)[C@@]2(C)O[C@H]2C3/C=C/C/C=C\CNC1=O (some centres not stated) , give its measured z-score value.
Result :: -1.03

Query :: For the compound O=C1OCCC=C[C@H]2OC34C=CCN(CCN5CCOCC5)C(=O)[C@H]3N(CCCO)C(=O)[C@@H]4C12 (some centres not stated) , give its measured z-score value.
Result :: 0.922

Query :: For the compound `COc1ccc(NC(=O)O[C@H]2[C@H](OC(=O)Nc3ccc4c(c3)OCO4)[C@H](OC(=O)Nc3ccc4c(c3)OCO4)[C@@H](OC)O[C@@H]2CO)cc1` , give its measured z-score value.
Result :: 0.212

Query :: For the compound `C#CCN=C(N)N` , give its measured z-score value.
Result :: -0.291

Query :: For the compound `COCCOC(=O)N1C(=O)[C@@]2(c3cc(C#Cc4ccc(OC)cc4)ccc31)[C@H](C(=O)N1CCCCCCC1)[C@H]1C(=O)O[C@H](c3ccccc3)[C@H](c3ccccc3)N1[C@@H]2c1ccccc1OCCO` , give its measured z-score value.
Result :: -0.291

---

- TEST NAME: binders of probe aFGF10 on microarray, primary screen, stem cell growth factor project, biochemical, small-molecule microarray, fluorescence 635/667 (AID 1071);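 note: score merges 667 nm spot intensity and signal to noise from triplicate slides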
- ASSAY CONTEXT: higher = more signal
Kind request: treat 0.5 as inclusive, so composite z-score at 0.5 or higher is criterion met, anything lower is criterion not met.

- COMPOUND: "COc1ccc([Si](C)(C)[C@H]2[C@H](CC(=O)N3Cc4ccccc4C[C@H]3CO)O[C@@]3(C(=O)N(Cc4cccc(N5C(=O)c6cccc7cccc5c67)c4)c4ccccc43)[C@@H]2C)cc1"
  CATEGORY LABEL: "criterion met"
- COMPOUND: "COC(=O)[C@@]1(Cc2ccc(F)cc2)[C@H]2c3cc(C(=O)N4CCCC4)n(CCO)c3C[C@H]2CN1C(=O)c1ccccc1"
  CATEGORY LABEL: "criterion met"
- COMPOUND: "CN(C)CCCNC(=O)[C@@]1(Cc2ccccc2I)c2ccccc2C(=O)N(Cc2ccccc2)[C@H]1c1ccc(CO)cc1"
  CATEGORY LABEL: "criterion met"
- COMPOUND: "CC(=O)NCCCC[C@@H]1NC(=O)[C@@H]2C[C@H](C(=O)NCCCCCC[N+](C)(C)C)[C@H](c3ccc(O)cc3)N2C1=O"
  CATEGORY LABEL: "criterion not met"
- COMPOUND: "CCCCCCCCCCC(O)C1C=CC2C(=O)N(C)C(=O)C2N1N1CCCCC1 (configuration not stated)"
  CATEGORY LABEL: "criterion not met"

Query :: Please tell me: is the compound CCC(CC)C(O)C1C=CC2C(=O)N(C)C(=O)C2N1N1CCCCC1 (configuration not stated) at or over 0.5 in terms of composite z-score?
Result :: criterion met

---

- TEST NAME: A549 lung cancer cell viability effects, profiling panel, resazurin fluorescence, 24 h, PK04 Diversity Set (AID 1171); note: test concentration not given here
- ASSAY CONTEXT: higher = more signal, called active from +8 up or from −8 down
Active and inactive are the calls of the source.
Each item that follows carries a reported z-score.

Solved entries (count: 3):
- COMPOUND: "CCCC[C@@H]1C[C@H]1[C@@H](NC(=O)c1ccc(C(F)(F)F)cc1)c1ccc(C(=O)OC)cc1"
  z-score: "0.312 (inactive)"
- COMPOUND: "O=C1C2C=CC(C(O)c3cccc(O)c3)N(Nc3ccccc3F)C2C(=O)N1c1ccccc1 (centres undefined)"
  z-score: "0.249 (inactive)"
- COMPOUND: "COCCCNC(=O)[C@@]1(Sc2ccc(C)cc2)CC(=O)N(C2CCCCC2)[C@@H]1c1ccc(CO)cc1I"
  z-score: "0.804 (inactive)"

Then this compound:
Query :: For the compound `C=CC[C@@]12N=C(c3ccc(OCCCO)cc3)O[C@@H]1c1ccccc1N(Cc1ccccc1)C2=O` , give its measured z-score value.
Result :: -1.1 (inactive)

---

Each item that follows carries a reported composite z-score.
- TARGET OR SYSTEM: Follistatin (Homo sapiens) (UniProt P19883)
- Sequence (P19883 whole entry, looked up): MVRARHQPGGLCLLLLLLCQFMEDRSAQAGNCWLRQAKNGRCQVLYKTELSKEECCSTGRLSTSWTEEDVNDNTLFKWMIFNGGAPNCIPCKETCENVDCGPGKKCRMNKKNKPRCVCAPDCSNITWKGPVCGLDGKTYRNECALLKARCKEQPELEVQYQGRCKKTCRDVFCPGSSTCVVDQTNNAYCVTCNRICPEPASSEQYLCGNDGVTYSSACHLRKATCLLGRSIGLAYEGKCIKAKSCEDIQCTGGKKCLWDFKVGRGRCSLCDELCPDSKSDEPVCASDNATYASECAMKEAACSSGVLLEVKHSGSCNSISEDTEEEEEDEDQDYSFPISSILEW
- TEST NAME: follistatin binders on small-molecule microarrays, primary screen, biochemical, small-molecule microarray, 635/667 nm fluorescence (AID 1132)
- ASSAY CONTEXT: FST binding, 635 nm fluorescence, higher = more signal
Keep it simple and answer with nothing but the number.

Solved entries (count: 8):
- MOLECULE: "C[N+](C)(C)CCCCCCNC(=O)[C@@H]1C[C@@H]2C(=O)N[C@@H](Cc3ccccc3)C(=O)N2[C@@H]1c1ccc(O)cc1"
  composite z-score: 1.43
- MOLECULE: "C=CCC(OC(C)=O)[C@@H]1[C@@H](N(Cc2ccc(-c3ccccc3)cc2)C(=O)c2ccc(C)cc2)c2cc(OCCCO)ccc2N1C(=O)c1ccc2ccccc2c1 (stereo partly specified)"
  composite z-score: 0.576
- MOLECULE: "CC#CCO[Si](C#CCCCCCC)(C(C)C)C(C)C"
  composite z-score: -2.99
- MOLECULE: "C=CCC(OC(C)=O)[C@@H]1[C@@H](N(Cc2cccc3ccccc23)C(=O)c2ccc(C)cc2)c2cc(OCCCO)ccc2N1C(=O)c1ccc2ccccc2n1 (stereo partly specified)"
  composite z-score: 0.584
- MOLECULE: "C=CCC(OC(C)=O)[C@@H]1[C@@H](N(Cc2cc3ccccc3o2)C(=O)c2ccc(-c3ccccc3)cc2)c2cc(OCCCO)ccc2N1C(=O)c1ccc2ccccc2n1 (stereo partly specified)"
  composite z-score: 0.313
- MOLECULE: "CCOC(=O)C1=CC[C@@H](c2ccccc2)N(S(=O)(=O)c2ccc(C)cc2)[C@H]1C#N"
  composite z-score: -0.33
- MOLECULE: "C=C(CCCC)/C(=C/C[C@H](OC(C)=O)c1cccc(OCCO)c1)c1cc(C(=O)OC)ccc1OC"
  composite z-score: 0.0088
- MOLECULE: "Cc1c(-c2ccc(-c3ccc(Cl)c(Cl)c3)o2)nc(-c2ccccc2)c2c1CO[Si]2(C(C)C)C(C)C"
  composite z-score: -0.161

Query :: For the molecule `C/C=C/CN(C(=O)C#Cc1ccccc1)[C@H](CO[Si](C)(C)C(C)(C)C)c1ccccc1` , give its measured composite z-score value.
Result :: -1.52

Query :: For the molecule `N[C@@H](Cc1ccccc1)Cn1cc(C2(O)CCCCC2)nn1` , give its measured composite z-score value.
Result :: 0.0725

---

- TEST NAME: binders of probe aFGF2 on microarray, primary screen, stem cell growth factor project, biochemical, small-molecule microarray, fluorescence 635/667 (AID 1067);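 note: measures binding of biotinylated aFGF2 protein to printed compounds on slides; z-score merges feature fluorescence and signal-to-noise across triplicate slides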
- ASSAY CONTEXT: higher = more signal
Each item that follows carries a reported composite z-score.

Solved entries (count: 10):
- MOLECULE: "CCCCC=C[C@@H](NC(=O)c1ccc(C(F)(F)F)cc1)c1ccccc1"
  composite z-score: -0.0583
- MOLECULE: "NCCCC[C@@H]1NC(=O)[C@H]2C[C@@H](C(=O)NCc3ccc(F)cc3)[C@@H](c3cccc(OCCO)c3)N2C1=O"
  composite z-score: -0.0262
- MOLECULE: "[N-]=[N+]=NCc1ccccc1C[C@]1(C(=O)O)COC(c2ccc(OCCCO)cc2)=N1"
  composite z-score: -0.0213
- MOLECULE: "COc1cc2c(cc1O)C(C1CC1)N(Cc1ccc([N+](=O)[O-])o1)CC2 (centres undefined)"
  composite z-score: -0.0226
- MOLECULE: "C=CCOC(=O)[C@H]1[C@@H]2C(=O)O[C@@H](c3ccccc3)[C@@H](c3ccccc3)N2[C@@H](c2ccc(OCCOC(=O)[C@@H]3C[C@@H]4C(=O)N[C@@H](CC(C)C)C(=O)N4[C@@H]3c3ccc(O)cc3)cc2)[C@]12C(=O)Nc1ccc(I)cc12"
  composite z-score: -0.158
- MOLECULE: "CN(C)C(=O)[C@]1(Cc2ccccc2CN=[N+]=[N-])N=C(c2ccc(OCCCO)cc2)O[C@@H]1c1ccccc1N=[N+]=[N-]"
  composite z-score: 0.117
- MOLECULE: "COc1ccc([Si](C)(C)[C@@H]2[C@@H](CCO)O[C@]3(C(=O)N(Cc4ccccc4)c4ccc(N5C(=O)c6ccccc6Oc6ccccc65)cc43)[C@H]2C)cc1"
  composite z-score: -0.0962
- MOLECULE: "O=C1O[C@H](c2ccccc2)[C@H](c2ccccc2)N2[C@H]1[C@@H](C(=O)NC[C@H](O)c1ccccc1)[C@]1(C(=O)Nc3ccc(C#CCCO)cc31)[C@H]2c1ccccc1OCCO"
  composite z-score: -0.141
- MOLECULE: "N#Cc1ccc(C(O)C2C=CC3C(=O)N(c4ccccc4)C(=O)C3N2Nc2ccc([N+](=O)[O-])cc2)cc1 (centres undefined)"
  composite z-score: 0.139
- MOLECULE: "COCCn1c(C(=O)N2CCCC2)cc2c1C[C@H]1CN(C(=O)c3ccccc3)[C@@](Cc3ccccc3)(C(=O)OC)[C@@H]21"
  composite z-score: 0.576

Query :: For the molecule `COCC1=C([C@H](O)CCc2ccccc2)[C@H](CO)n2c(=O)n(-c3ccccc3)c(=O)n2C1` , give its measured composite z-score value.
Result :: -0.112

Query :: For the molecule CCN(CC)c1ccc(N2CC=CC34O[C@@H]5C=CCOC(=O)[C@@H]5[C@H]3C(=O)N(CCO)[C@@H]4C2=O)cc1 (some centres undefined) , give its measured composite z-score value.
Result :: -0.144

Query :: For the molecule `CCCC=C(CCC)[C@@H](NS(=O)(=O)c1ccc(Cl)cc1)c1ccccc1` , give its measured composite z-score value.
Result :: 0.106

Query :: For the molecule `C=CCOC(=O)[C@H]1[C@@H]2C(=O)O[C@@H](c3ccccc3)[C@@H](c3ccccc3)N2[C@@H](c2ccc(OCCOC(=O)[C@H]3C[C@H]4C(=O)NCC(=O)N4[C@H]3c3ccc(O)cc3)cc2)[C@]12C(=O)Nc1ccc(I)cc12` , give its measured composite z-score value.
Result :: -0.0867

Query :: For the molecule `C[C@]1(C(=O)NCC(F)(F)F)c2ccccc2C(=O)N(Cc2ccc(OC(F)(F)F)cc2)[C@H]1c1ccc(CO)cc1` , give its measured composite z-score value.
Result :: -0.0757

Query :: For the molecule `COCCOC(=O)N1C(=O)[C@@]2(c3cc(C#CC4(O)CCCCCC4)ccc31)[C@H](c1ccc(OCCO)cc1)N1[C@H](c3ccccc3)[C@H](c3ccccc3)OC(=O)[C@H]1[C@@H]2C(N)=O` , give its measured composite z-score value.
Result :: 0.014

Query :: For the molecule `C#CCN([C@H](/C=C/C1CC1)[C@@H](O)Cc1ccccc1)[C@@H](Cc1ccccc1)C(=O)OC` , give its measured composite z-score value.
Result :: -0.121

Query :: For the molecule CC(C)C[C@H]1NC(=O)[C@@]23C(=O)N[C@@H](Cc4ccccc4)C2[C@H](C)[C@@]2(C)O[C@H]2C3/C=C/C/C=C\CNC(=O)[C@@H]2CCCN2C1=O (some centres undefined) , give its measured composite z-score value.
Result :: -0.078

Query :: For the molecule `COc1ccc(CCNC(=O)[C@@H]2c3ccccc3C(=O)N(CC34CC5CC(CC(C5)C3)C4)[C@H]2c2ccc(CO)cc2)cc1` , give its measured composite z-score value.
Result :: 0.257

Query :: For the molecule `CC(C)CNC(=O)[C@@]1(C)c2ccccc2C(=O)N(Cc2cc(F)cc(C(F)(F)F)c2)[C@H]1c1ccc(CO)cc1` , give its measured composite z-score value.
Result :: -0.0422

Query :: For the molecule `CC(C)C[C@@H]1NC(=O)[C@@H]2C[C@H](C(=O)O)[C@H](c3ccc(O)cc3)N2C1=O` , give its measured composite z-score value.
Result :: -0.121

Query :: For the molecule COC(=O)C1=CC(CCCO)=CC(c2ccc(CN3CCCC3)cc2)N(Cc2sc3ccccc3c2Cl)C=C1C(=O)OC (centres undefined) , give its measured composite z-score value.
Result :: 0.321

Query :: For the molecule `COC(=O)c1c(CC[C@@H](CO)NC(=O)N[C@@H](Cc2ccccc2)Cn2cc(-c3cncn3C)nn2)oc(C(C)=O)c1C(=O)OC` , give its measured composite z-score value.
Result :: -0.129

Query :: For the molecule COC(=O)C1=CC(CCCO)=CC(C2CC2)N(Cc2cccc(OC(F)(F)F)c2)C=C1C(=O)OC (centres undefined) , give its measured composite z-score value.
Result :: -0.0265

Query :: For the molecule `C=C(COC)C(=O)CC[C@@H](OC(=O)c1cccnc1)c1cccc(OCCO)c1` , give its measured composite z-score value.
Result :: -0.0332

Query :: For the molecule `[N-]=[N+]=NCc1ccccc1C[C@@]1(C(=O)O)N=C(c2ccc(OCCCO)cc2)O[C@@H]1c1ccccc1CN=[N+]=[N-]` , give its measured composite z-score value.
Result :: -0.01

Query :: For the molecule `C#CCN=C(N)N` , give its measured composite z-score value.
Result :: -0.127

Query :: For the molecule `COCCOC(=O)N1C(=O)[C@@]2(c3cc(C#CC4(O)CCCCCC4)ccc31)[C@H](c1ccccc1OCCO)N1[C@H](c3ccccc3)[C@H](c3ccccc3)OC(=O)[C@H]1[C@@H]2C(=O)N1CCCCCCC1` , give its measured composite z-score value.
Result :: 0.324

Query :: For the molecule O=C1C2C=CC(C(O)c3cccs3)N(Nc3ccccc3)C2C(=O)N1c1ccccc1 (centres undefined) , give its measured composite z-score value.
Result :: -0.0459

Data provenance: PubChem BioAssay
